Recorded measurements of Retention_time, one per entry
- test-protocol: Retention time of the compound by UPLC-MS/MS method
- Type: physicochemical
outcome-measure: Retention_time

O=C(NCc1ccc2c(c1)OCO2)[C@@H]1CC(=O)N(c2ccc(OCc3ccccc3Cl)cc2)C1    2.01 min
O=C(COc1ccc2ccccc2c1)Nn1ccc2c(nnc3c(-c4ccc(F)cc4)cnn32)c1=O    1.29 min
Cc1ccc(N2C[C@H](C(=O)NCc3n[nH]c(=O)c4ccccc34)CC2=O)cc1C    1.68 min
O=C(Cn1nnc2ccccc21)Nc1ccc(-c2nc3ccccc3s2)cc1    1.72 min
Cc1cc(C)cc(NC(=O)[C@@H]2CC(=O)N(CCc3c[nH]c4ccc(F)cc34)C2)c1    1.55 min
C[C@H]1CCCC[C@@H]1NC(=O)CC[C@@H]1NC(=O)N(CCc2c[nH]c3ccc(F)cc23)C1=O    2.26 min

---

- study-target: Monoglyceride lipase (Homo sapiens, UniProt Q99685)
- Sequence (Q99685 whole entry): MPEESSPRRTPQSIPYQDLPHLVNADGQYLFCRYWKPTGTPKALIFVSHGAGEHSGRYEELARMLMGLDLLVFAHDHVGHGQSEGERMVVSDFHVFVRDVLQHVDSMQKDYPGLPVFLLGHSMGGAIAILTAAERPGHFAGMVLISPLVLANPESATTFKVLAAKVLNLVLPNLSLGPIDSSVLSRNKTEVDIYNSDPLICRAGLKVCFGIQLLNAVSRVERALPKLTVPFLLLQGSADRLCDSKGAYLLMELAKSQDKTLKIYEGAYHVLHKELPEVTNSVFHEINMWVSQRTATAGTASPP
pIC50: −log10 of the molar value.
outcome-measure: pIC50

COc1nn(-c2ccc(NC(=O)OCc3ccccc3)c(C)c2)c(=O)o1    7.70
